# MEASUREMENT_SETUP: in methanol, 314.12 K
MEASUREMENT_TYPE: solubility (mole fraction)

Note down solubility (mole fraction) recorded for COc1cc(Cc2cnc(N)nc2N)cc(OC)c1OC
0.0032

---

# MEASUREMENT_SETUP: in methanol, 277.02 K
MEASUREMENT_TYPE: solubility (mole fraction)

Note down solubility (mole fraction) recorded for COc1cc(Cc2cnc(N)nc2N)cc(OC)c1OC
0.000828

---

# MEASUREMENT_SETUP: in isopropanol, 297.57 K
MEASUREMENT_TYPE: solubility (mole fraction)
One number for each entry.

Note down solubility (mole fraction) recorded for COc1cc(Cc2cnc(N)nc2N)cc(OC)c1OC
0.000322
